- RUN DESCRIPTION: Log distribution coefficient of solvent A
- Assay type: physicochemical
OBSERVATION TYPE: Log distribution coefficient
Reply with just the number.

>  <COMPOUND>
CC(O)COc1ccccc1 (stereo not drawn)

>  <Log distribution coefficient>
1.51

$$$$
>  <COMPOUND>
OCCCCc1ccccc1

>  <Log distribution coefficient>
2.4

$$$$
>  <COMPOUND>
OCCCc1ccccc1

>  <Log distribution coefficient>
1.88

$$$$
>  <COMPOUND>
OCCOc1ccccc1

>  <Log distribution coefficient>
1.16

$$$$

Problem: Please look up its Log distribution coefficient: OCc1ccccc1
Result: 1.03

Problem: What value of measured Log distribution coefficient is listed for CC(O)Cc1ccccc1 (stereo not drawn) ?
Result: 1.71
